# System: formaldehyde induced nociceptive behaviour
# measurement-notes: Formaldehyde test in mice, second (late) phase
# Assay type: in vivo, mouse
# particulars: 0.1 mg/kg body weight po; mouse; read-out: inhibition formaldehyde test (n = 10)
Rule: inhibition in vivo at 0.1 mg/kg of 30% or more gives Yes; anything lower gives No.

Query: Is reported inhibition in vivo at 0.1 mg/kg greater than or equal to 30% here: CC(C(=O)NCc1ccc(C(F)(F)F)nc1SC1CCCCC1)c1ccc(NS(C)(=O)=O)c(F)c1 (centres unmarked)
Response: No

Query: Determine whether this compound has inhibition in vivo at 0.1 mg/kg no lower than 30%: CC(C(=O)NCc1ccc(C(F)(F)F)cc1N1CCCC1)c1ccc(NS(C)(=O)=O)c(F)c1 (centres unmarked)
Response: No

Query: Quick check: does CCCCN(C)c1nc(C(F)(F)F)ccc1CNC(=O)C(C)c1ccc(NS(C)(=O)=O)c(F)c1 (centres unmarked) have inhibition in vivo at 0.1 mg/kg greater than or equal to 30%?
Response: Yes

Query: Hi team, for CCCCNc1nc(C(F)(F)F)ccc1CNC(=O)C(C)c1ccc(NS(C)(=O)=O)c(F)c1 (centres unmarked) , is the recorded inhibition in vivo at 0.1 mg/kg at or above 30%?
Response: Yes

Query: hey, is inhibition in vivo at 0.1 mg/kg for this one >= 30%? CC(C(=O)NCc1ccc(C(C)(C)C)nc1OC1CCCC1)c1ccc(NS(C)(=O)=O)c(F)c1 (centres unmarked)
Response: No
